As an illustration, consider measured pIC50 for molecules on GST-tagged SIK2 (Homo sapiens (Human)).
Sequence (Q9H0K1 whole entry): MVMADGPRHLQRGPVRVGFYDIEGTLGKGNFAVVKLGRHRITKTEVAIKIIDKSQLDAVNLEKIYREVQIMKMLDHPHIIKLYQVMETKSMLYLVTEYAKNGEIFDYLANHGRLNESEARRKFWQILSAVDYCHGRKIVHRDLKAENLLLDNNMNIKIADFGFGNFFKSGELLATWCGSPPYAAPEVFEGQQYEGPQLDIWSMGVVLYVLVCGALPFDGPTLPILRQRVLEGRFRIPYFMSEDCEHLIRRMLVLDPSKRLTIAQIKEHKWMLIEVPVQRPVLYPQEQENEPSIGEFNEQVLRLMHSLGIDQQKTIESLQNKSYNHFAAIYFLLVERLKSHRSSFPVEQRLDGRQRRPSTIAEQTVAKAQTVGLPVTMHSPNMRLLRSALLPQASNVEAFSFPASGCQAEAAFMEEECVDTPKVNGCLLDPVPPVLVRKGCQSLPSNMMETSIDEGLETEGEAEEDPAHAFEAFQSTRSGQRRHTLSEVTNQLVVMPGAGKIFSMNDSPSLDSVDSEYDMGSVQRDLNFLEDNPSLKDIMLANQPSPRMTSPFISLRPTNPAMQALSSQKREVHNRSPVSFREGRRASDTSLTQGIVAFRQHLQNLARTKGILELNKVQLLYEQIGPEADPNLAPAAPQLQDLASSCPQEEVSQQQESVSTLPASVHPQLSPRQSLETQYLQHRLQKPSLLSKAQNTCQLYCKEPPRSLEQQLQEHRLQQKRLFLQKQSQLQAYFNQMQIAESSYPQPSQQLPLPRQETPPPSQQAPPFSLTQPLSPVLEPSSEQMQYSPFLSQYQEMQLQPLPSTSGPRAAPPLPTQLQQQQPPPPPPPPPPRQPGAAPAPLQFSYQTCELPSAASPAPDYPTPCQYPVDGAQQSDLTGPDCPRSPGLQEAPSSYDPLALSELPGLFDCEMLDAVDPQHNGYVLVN
pIC50: −log10 of the molar value.

Structure: COc1cc(-c2c3c(OCc4cnc(C)s4)cc(-c4cnn(C)c4)cc3nn2C)cc(OC(F)F)c1C(=O)N1CC(O)(C(F)(F)F)C1
pIC50: 7.95

Structure: COCCCn1cc(-c2cc(C#N)c3c(-c4cc(OC)c5c(c4)C(C)(C)CNC5=O)n(C)nc3c2)cn1
pIC50: 8.46

Structure: COc1cc(-c2c3c(OCc4cncc(C#N)c4)cc(-c4cnn(C)c4)cc3nn2C)cc(OC(F)F)c1C(=O)N1CC(O)(C(F)(F)F)C1
pIC50: 8.74

* * *

biological target: GST-tagged SIK2 (Homo sapiens (Human))
pIC50: −log10 of the molar value.
// reported pIC50 per item
Property: pIC50

Compound: COCCn1cc(-c2cc(OC(F)F)c3c(-c4cc(OC)c(C(N)=O)c(OC(F)F)c4)n(C)nc3c2)cn1
Numeric readout: 8.92
//
Compound: COc1cc(-c2c3c(C#N)cc(-c4cnn(CC(F)(F)F)c4)cc3nn2C)cc2c1C(=O)NCC2(C)C
Numeric readout: 8.44
//
Compound: COc1cc(-c2c3c(C(F)F)cc(-c4cnn(CC(C)(C)O)c4)cc3nn2C)cc(OC(F)F)c1C(=O)N[C@@H]1CC1(F)F
Numeric readout: 7.74
//
Compound: COc1cc(-c2c3c(OCc4ccccc4)cc(-c4cnn(C)c4)cc3nn2C)cc(OC(F)F)c1C(=O)N[C@@H]1C[C@@H]1F
Numeric readout: 8.15
//
Compound: COc1cc(-c2c3c(C#N)cc(-c4cnn(C[C@H](C)O)c4)cc3nn2C)cc(OC(F)F)c1C(=O)NC[C@@H]1CC1(F)F (single isomer, unassigned)
Numeric readout: 7.88
//
Compound: COc1cc(-c2c3c(C#N)cc(-c4cnn(C(C)(C)C)c4)cc3nn2C)cc(OC(F)F)c1C(=O)N[C@@H]1C[C@@H]1F
Numeric readout: 8.24
//
Compound: COc1cc(-c2c3c(C#N)cc(-c4cnn(CCN5CC(F)(F)C5)c4)cc3nn2C)cc(OC(F)F)c1C(=O)NC[C@@H]1CC1(F)F (stereo in doubt)
Numeric readout: 8.19
//
Compound: COc1cc(-c2c3c(OC)cc(-c4cnn(C)c4)cc3nn2C)cc(OC(F)F)c1C(N)=O
Numeric readout: 8.68
//
Compound: CCCn1cc(-c2cc(C(F)F)c3c(-c4cc(OC)c(C(N)=O)c(OC(F)F)c4)n(C)nc3c2)cn1
Numeric readout: 7.81
//
Compound: COc1cc(-c2cnn(C)c2)cc2nn(C)c(-c3cc(OC(F)F)c4c(c3)[C@@H](C)CNC4=O)c12 (single isomer, unassigned)
Numeric readout: 8.82
//
Compound: COc1cc(-c2c3c(C#N)cc(-c4cnn(CC(=O)N(C)C)c4)cc3nn2C)cc(OC(F)F)c1C(=O)N1CC(O)(C(F)(F)F)C1
Numeric readout: 8.07
//
Compound: COc1cc(-c2c3c(OCC(F)F)cc(-c4cnn(C)c4)cc3nn2C)cc(OC(F)F)c1C(=O)N1CC(O)(C(F)(F)F)C1
Numeric readout: 8.12
//
Compound: COc1cc(-c2c3c(C#N)cc(-c4cnn(CC5COC5)c4)cc3nn2C)cc(OC(F)F)c1C(=O)NCC1(F)CC1
Numeric readout: 8.42

* * *

target: GST-tagged SIK3 (Homo sapiens (Human))
Sequence (Q9Y2K2 whole entry): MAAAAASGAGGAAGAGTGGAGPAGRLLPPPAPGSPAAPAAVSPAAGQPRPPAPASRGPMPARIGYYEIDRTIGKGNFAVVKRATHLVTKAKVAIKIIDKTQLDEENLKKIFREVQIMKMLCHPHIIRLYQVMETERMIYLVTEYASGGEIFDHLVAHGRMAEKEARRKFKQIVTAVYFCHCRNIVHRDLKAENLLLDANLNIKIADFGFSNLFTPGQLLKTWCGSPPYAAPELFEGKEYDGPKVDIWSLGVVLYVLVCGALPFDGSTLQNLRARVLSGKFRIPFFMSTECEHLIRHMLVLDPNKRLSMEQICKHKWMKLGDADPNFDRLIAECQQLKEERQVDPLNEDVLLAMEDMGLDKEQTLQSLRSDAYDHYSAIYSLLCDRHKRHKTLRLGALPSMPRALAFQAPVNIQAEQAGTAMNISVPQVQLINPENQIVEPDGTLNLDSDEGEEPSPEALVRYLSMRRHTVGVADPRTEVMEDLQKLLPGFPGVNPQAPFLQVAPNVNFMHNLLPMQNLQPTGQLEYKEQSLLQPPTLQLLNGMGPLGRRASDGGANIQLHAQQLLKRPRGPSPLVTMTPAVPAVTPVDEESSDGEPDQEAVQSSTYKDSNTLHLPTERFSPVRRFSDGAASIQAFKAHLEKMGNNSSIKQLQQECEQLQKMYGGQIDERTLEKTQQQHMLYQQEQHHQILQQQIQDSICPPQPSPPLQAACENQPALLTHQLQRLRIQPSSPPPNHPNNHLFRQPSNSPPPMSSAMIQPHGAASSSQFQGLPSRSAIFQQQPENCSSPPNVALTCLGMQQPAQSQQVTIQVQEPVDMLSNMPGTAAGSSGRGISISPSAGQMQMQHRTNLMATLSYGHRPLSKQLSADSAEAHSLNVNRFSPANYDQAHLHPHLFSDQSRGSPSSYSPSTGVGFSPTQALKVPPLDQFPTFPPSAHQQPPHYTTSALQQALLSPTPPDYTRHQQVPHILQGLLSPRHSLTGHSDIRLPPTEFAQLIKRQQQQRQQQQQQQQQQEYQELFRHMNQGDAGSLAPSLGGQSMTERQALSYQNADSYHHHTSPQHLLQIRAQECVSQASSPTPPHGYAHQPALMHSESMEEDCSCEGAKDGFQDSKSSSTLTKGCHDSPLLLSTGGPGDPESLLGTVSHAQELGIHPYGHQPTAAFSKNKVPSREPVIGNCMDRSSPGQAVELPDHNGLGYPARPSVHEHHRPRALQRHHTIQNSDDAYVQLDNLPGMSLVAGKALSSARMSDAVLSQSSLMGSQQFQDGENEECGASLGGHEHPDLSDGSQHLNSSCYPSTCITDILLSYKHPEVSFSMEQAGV
pIC50: −log10 of the molar value.
Property: pIC50

Compound: COc1cc(-c2c3c(C#N)cc(-c4cnn(CC5CC5)c4)cc3nn2C)cc2c1C(=O)NC[C@@H]2C (single isomer, unassigned) [Example 170]
Property: pIC50
Numeric readout: 8.37
//
Compound: COc1cc(-c2c3c(OCc4ccc(C)nc4)cc(-c4cnn(C)c4)cc3nn2C)cc(OC(F)F)c1C(=O)N1CC(O)(C(F)(F)F)C1 [Example 50]
Property: pIC50
Numeric readout: 7.77
//
Compound: COc1cc(-c2c3c(C(F)F)cc(-c4cnn(CC(=O)N(C)C)c4)cc3nn2C)cc(OC(F)F)c1C(=O)N1CC(O)(C(F)F)C1 [Example 61]
Property: pIC50
Numeric readout: 8.13

* * *

biological target: GST-tagged SIK2 (Homo sapiens (Human)); assay: SIK2 inhibition test (ADP-Glo Max Assay); assay type: biochemical; conditions: enzyme 3 nM, AMARA Peptide 200 μM, ATP 1 mM, 2 hours room temperature
pIC50: −log10 of the molar value.
So basically: pIC50 at 8 or higher? That is Criterion met. Lower than 8? That is Criterion not met.

Compound: COCCn1cc(-c2cc(C#N)c3c(-c4cc(OC(F)F)c5c(c4)[C@@H](C)CNC5=O)n(C)nc3c2)cn1 (single isomer, unassigned) [Example 173]
Discrete label: Criterion met

Compound: COc1cc(-c2cnn3cc(OCCN4CCOCC4)ccc23)cc2c1C(=O)N(CC(F)(F)F)CC2 [Comparative Example 6, reference compound]
Discrete label: Criterion not met

Compound: CC1CNC(=O)c2c(OC(F)F)cc(-c3c4c(C#N)cc(-c5cnn(C)c5)cc4nn3C)cc21 (stereo not drawn) [Example 160]
Discrete label: Criterion met

* * *

target: GST-tagged SIK1 (Homo sapiens (Human)); assay: SIK1 inhibition test (ADP-Glo Max Assay); type: biochemical; settings: enzyme 20 nM, AMARA Peptide 200 μM, ATP 1 mM, 2 hours room temperature
Sequence (P57059 whole entry): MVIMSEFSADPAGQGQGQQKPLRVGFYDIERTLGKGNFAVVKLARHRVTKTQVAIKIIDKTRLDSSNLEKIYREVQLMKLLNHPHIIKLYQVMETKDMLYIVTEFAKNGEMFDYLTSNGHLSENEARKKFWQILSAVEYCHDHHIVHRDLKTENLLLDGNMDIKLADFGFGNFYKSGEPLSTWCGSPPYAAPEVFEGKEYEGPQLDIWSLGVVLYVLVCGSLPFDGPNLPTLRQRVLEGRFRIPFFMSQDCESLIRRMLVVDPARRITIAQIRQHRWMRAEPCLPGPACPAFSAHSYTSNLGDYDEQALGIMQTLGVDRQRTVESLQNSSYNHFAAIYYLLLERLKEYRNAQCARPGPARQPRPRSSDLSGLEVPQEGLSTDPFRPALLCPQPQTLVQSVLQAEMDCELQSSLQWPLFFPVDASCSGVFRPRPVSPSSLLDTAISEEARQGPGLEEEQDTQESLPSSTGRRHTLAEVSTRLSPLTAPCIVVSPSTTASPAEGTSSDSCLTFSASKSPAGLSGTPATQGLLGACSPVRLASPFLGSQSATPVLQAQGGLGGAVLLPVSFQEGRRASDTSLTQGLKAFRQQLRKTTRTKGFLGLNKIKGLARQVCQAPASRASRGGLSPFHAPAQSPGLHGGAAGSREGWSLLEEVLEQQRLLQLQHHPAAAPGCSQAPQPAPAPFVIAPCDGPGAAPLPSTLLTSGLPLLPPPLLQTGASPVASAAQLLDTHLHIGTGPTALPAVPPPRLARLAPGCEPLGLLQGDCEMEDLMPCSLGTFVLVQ
Listed here: items and their measured IC50.
Property: IC50

Compound: COc1cc(-c2c3c(C#N)cc(-c4cnn(CC5CC5)c4)cc3nn2C)cc2c1C(=O)NC[C@@H]2C (single isomer, unassigned)
Result: 8.5 nM
--
Compound: COc1cc(-c2c3c(C(F)F)cc(-c4cn[nH]c4)cc3nn2C)cc(OC(F)F)c1C(=O)N1CC(O)(C(F)F)C1
Result: 8.3 nM
--
Compound: CCCn1cc(-c2cc(C#N)c3c(-c4cc(OC)c5c(c4)[C@@H](C)CNC5=O)n(C)nc3c2)cn1 (single isomer, unassigned)
Result: 8 nM

* * *

Below are log10(IC50) values measured for GST-tagged SIK1 (Homo sapiens (Human), UniProt P57059).
Property: log10(IC50) (log10 of the value in nM)

Compound: COc1cc(-c2c3c(OC(F)F)cc(-c4cnn(C)c4)cc3nn2C)cc(OC(F)F)c1C(=O)N1CC(O)(C(F)(F)F)C1
Numeric readout: 0.56
--
Compound: COc1cc(-c2c3c(C#N)cc(-c4cnn(C(C)C)c4)cc3nn2C)cc2c1C(=O)NC[C@@H]2C (single isomer, unassigned)
Numeric readout: 0.93
--
Compound: COc1cc(-c2c3c(OC(F)F)cc(-c4cnn(C)c4)cc3nn2C)cc(OC(F)F)c1C(=O)N[C@@H]1C[C@@H]1F
Numeric readout: 1.03
--
Compound: COc1cc(-c2c3c(C(F)F)cc(-c4cnn(CC(=O)N(C)C)c4)cc3nn2C)cc(OC(F)F)c1C(=O)N1CC(O)(C(F)F)C1
Numeric readout: 0.67
--
Compound: COc1cc(-c2c3c(C#N)cc(-c4cnn(C(C)(C)C)c4)cc3nn2C)cc(OC(F)F)c1C(=O)N[C@@H]1C[C@@H]1F
Numeric readout: 0.64
--
Compound: COc1cc(-c2c3c(C#N)cc(-c4cnn(CC(F)F)c4)cc3nn2C)cc(OC(F)F)c1C(=O)N[C@@H]1C[C@@H]1F
Numeric readout: 0.57
--
Compound: COc1cc(-c2c3c(C#N)cc(-c4cnn(CCN5CC(F)(F)C5)c4)cc3nn2C)cc(OC(F)F)c1C(=O)NC[C@@H]1CC1(F)F (stereo in doubt)
Numeric readout: 1.23
--
Compound: COc1cc(-c2c3c(C#N)cc(-c4cnn(C)c4)cc3nn2C)cc(OC(F)F)c1C(=O)N1CC(C#N)(C(F)F)C1
Numeric readout: 1.21
--
Compound: COc1cc(-c2c3c(C#N)cc(-c4cnn(C(F)F)c4)cc3nn2C)cc2c1C(=O)NC[C@@H]2C (single isomer, unassigned)
Numeric readout: 0.91
--
Compound: COc1cc(-c2c3c(C#N)cc(-c4cnn(CCC5(O)CCC5)c4)cc3nn2C)cc(OC(F)F)c1C(N)=O
Numeric readout: 1.06
--
Compound: COc1cc(-c2c3c(OC)cc(-c4cnn(C)c4)cc3nn2C)cc(OC(F)F)c1C(=O)N[C@@H]1C[C@@H]1F
Numeric readout: 1.30
--
Compound: COc1cc(-c2c3c(OCc4ccncc4)cc(-c4cnn(C)c4)cc3nn2C)cc(OC(F)F)c1C(=O)N1CC(O)(C(F)(F)F)C1
Numeric readout: 0.28
--
Compound: COCCn1cc(-c2cc(C(F)F)c3c(-c4cc(OC)c(C(N)=O)c(OC(F)F)c4)n(C)nc3c2)cn1
Numeric readout: 1.13
